- method-description: Metabolic stability in Sprague-Dawley rat assessed as urinary excretion of unchanged drug level at 200 mg/kg, po after 0 to 48 hrs by HPLC
- Assay type: ADME, organism-based
- Set-up: dose 200 mg/kg, route oral
- measurement-parameters: urine, read-out: Activity
measured-property: dose excreted (%)
Kindly provide the numeric value in % only, without the unit symbol.

Fill in the blank: the reported dose excreted of O=C(/C=C/c1ccc(O)c(O)c1)O[C@H](Cc1ccc(O)c(O)c1)C(=O)O is ____.
0.077

====

- method-description: Metabolic stability in Sprague-Dawley rat assessed as urinary excretion of unchanged drug level at 200 mg/kg, po after 0 to 4 hrs by HPLC
- Type: ADME, organism-based
- Parameters: dose 200 mg/kg, route oral
- measurement-parameters: urine, read-out: Activity
measured-property: dose excreted (%)
Kindly provide the numeric value in % only, without the unit symbol.

Fill in the blank: the reported dose excreted of O=C(/C=C/c1ccc(O)c(O)c1)O[C@H](Cc1ccc(O)c(O)c1)C(=O)O is ____.
0.041
